Measured values drawn from ChEMBL document CHEMBL4393657 for this set.

Please respond with reported MIC for every item in the list.
system: Aspergillus fumigatus; experiment: Antifungal activity against Aspergillus fumigatus NCIM 902 assessed as reduction in fungal cell growth incubated for 3 to 4 days by disk diffusion method; type: functional
One number for each entry, in µg/mL.

compound="CCC(C)n1ncn(-c2ccc(N3CCN(c4ccc(OCC5COC(Cn6cncn6)(c6ccc(Cl)cc6Cl)O5)cc4)CC3)cc2)c1=O (centres undefined)" recorded_endpoint=MIC number=6.25

// below: MIC requested for another compound
Query :: Which MIC value belongs to `c1ccc(Cn2nnnc2SCCCSc2nnnn2-c2ccccc2)cc1` ?
Result :: 6.25

###

Hi there, I'd appreciate the recorded MIC for every entry that follows.
test system: Candida albicans; assay: Antifungal activity against Candida albicans assessed as reduction in fungal cell growth incubated for 48 hrs by broth microdilution method; type: functional

Solved cases below.
compound=COc1ccccc1N1CCN(CCc2nnnn2[C@@H](C)[C@](O)(Cn2cncn2)c2ccc(F)cc2F)CC1 tested_on="Candida albicans" recorded_endpoint=MIC result="0.12 to 16 µg/mL"
compound=C[C@H](n1nnnc1CCN1CCN(c2ccccn2)CC1)[C@](O)(Cn1cncn1)c1ccc(F)cc1F tested_on="Candida albicans" recorded_endpoint=MIC result="0.12 to 16 µg/mL"
compound="CCCCOc1ccccc1N1CCN(CCc2nnnn2C(C)C(O)(Cn2cncn2)c2ccc(F)cc2F)CC1 (stereo unspecified)" tested_on="Candida albicans" recorded_endpoint=MIC result="0.5 to 16 µg/mL"

Below are 3 compounds. Give each one its MIC.
1. C[C@H](n1nnnc1CCN1CCN(c2cccc(Cl)c2)CC1)[C@](O)(Cn1cncn1)c1ccc(F)cc1F
2. CC(n1nnnc1CCN1CCN(c2ccc([N+](=O)[O-])cc2)CC1)C(O)(Cn1cncn1)c1ccc(F)cc1F (stereo unspecified)
3. C[C@H](n1nnc(CCN2CCN(c3cccc(Cl)c3)CC2)n1)[C@](O)(Cn1cncn1)c1ccc(F)cc1F

Result ::
0.12 to 16 µg/mL
0.5 to 16 µg/mL
0.25 to 16 µg/mL

###

Would you kindly list MIC for each of these compounds?
tested on: Candida tropicalis; test: Antifungal activity against Candida tropicalis assessed as reduction in fungal cell growth incubated for 48 hrs by broth microdilution method; type: functional

Example compounds with recorded MIC:
compound="OC(Cn1cncn1)(Cn1cncn1)c1ccc(F)cc1F [FLUCONAZOLE]" tested_on="Candida tropicalis" recorded_endpoint=MIC result="2 to 8 µg/mL"
compound="CC(n1nnc(CCN2CCN(c3c(Cl)cccc3Cl)CC2)n1)C(O)(Cn1cncn1)c1ccc(F)cc1F (centres undefined)" tested_on="Candida tropicalis" recorded_endpoint=MIC result="1 to 16 µg/mL"
compound="OC(Cn1cncn1)(Cn1nnc(CCN2CCN(c3ccccn3)CC2)n1)c1ccc(F)cc1F (centres undefined)" tested_on="Candida tropicalis" recorded_endpoint=MIC result="1 to 16 µg/mL"

// for each compound in input: emit MIC
1. C[C@H](n1nnc(CCN2CCN(c3c(Cl)cccc3Cl)CC2)n1)[C@](O)(Cn1cncn1)c1ccc(F)cc1F
2. CC(n1nnc(CCN2CCN(c3ccccn3)CC2)n1)C(O)(Cn1cncn1)c1ccc(F)cc1F (centres undefined)
3. C[C@H](n1nnc(CCN2CCN(C(c3ccccc3)c3ccccc3)CC2)n1)[C@](O)(Cn1cncn1)c1ccc(F)cc1F
4. CCCCOc1ccccc1N1CCN(CCc2nnn(C(C)C(O)(Cn3cncn3)c3ccc(F)cc3F)n2)CC1 (centres undefined)
5. CCCCOc1ccccc1N1CCN(CCc2nnn(CC(O)(Cn3cncn3)c3ccc(F)cc3F)n2)CC1 (centres undefined)

Result ::
1: 0.25 to 16 µg/mL; 2: 1 to 16 µg/mL; 3: 0.25 to 16 µg/mL; 4: 1 to 16 µg/mL; 5: 1 to 16 µg/mL

Query :: Give Candida tropicalis MIC for CC(n1nnnc1CCN1CCN(c2ccccc2)CC1)C(O)(Cn1cncn1)c1ccc(F)cc1F (centres undefined)
Result :: 0.5 to 16 µg/mL
